Hello, the source for this data is patent US8389514B2, in case you need it.

List of IC50 values.
Target: recombinant full-length human GSK3β (Homo sapiens, UniProt P49841)
Construct: recombinant full-length human GSK3β (Upstate)
Sequence (P49841 whole entry): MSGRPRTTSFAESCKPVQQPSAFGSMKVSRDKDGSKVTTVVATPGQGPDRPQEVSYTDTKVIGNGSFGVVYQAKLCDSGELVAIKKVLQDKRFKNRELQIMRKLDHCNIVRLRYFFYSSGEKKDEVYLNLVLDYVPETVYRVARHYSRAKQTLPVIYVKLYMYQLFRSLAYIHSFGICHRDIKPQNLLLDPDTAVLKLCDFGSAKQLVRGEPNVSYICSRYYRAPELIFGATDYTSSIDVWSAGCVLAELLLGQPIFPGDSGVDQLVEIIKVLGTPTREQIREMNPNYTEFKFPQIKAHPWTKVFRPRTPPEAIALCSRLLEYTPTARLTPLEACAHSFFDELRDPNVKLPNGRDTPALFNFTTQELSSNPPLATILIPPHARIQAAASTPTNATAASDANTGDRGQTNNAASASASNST
Test: GSK3β enzyme cell free luciferase-coupled kinase assay
Conditions: 5 μM ATP

Consider the following illustrative entries.
C[C@H]1COc2c(NCCCc3ccccn3)c(F)c(N)c3c(=O)c(-c4nnn[nH]4)cn1c23 ... < 10 nM
C[C@H]1COc2c(NCCCn3ccnc3)c(F)c(N)c3c(=O)c(-c4nnn[nH]4)cn1c23 ... 10 to 100 nM

Could you now look at the following compound, please?
State the recorded IC50 for this entry: `CCN(CCCNc1c(F)c(N)c2c(=O)c(-c3nnn[nH]3)cn3c2c1OC[C@@H]3C)c1ccccc1` 10 to 100 nM
